Assayed System: … (SEQ ID NO: 1)-HLA-A*02 complex (soluble, biotinylated) (human)
Measurement Protocol: SPR (BIAcore) or BLI (Octet) per Example 3, biotinylated pHLA immobilised, 25 C
Endpoint: Kd (nM)
Express the result in nM but write the number alone.

Sample ImmTAC molecule comprising a79 (SEQ ID NO: 7) and b63 (SEQ ID NO: 22) (TCR, part only; not given: anti-CD3 scFv, linker, TCR constants, part only) TCR alpha, part: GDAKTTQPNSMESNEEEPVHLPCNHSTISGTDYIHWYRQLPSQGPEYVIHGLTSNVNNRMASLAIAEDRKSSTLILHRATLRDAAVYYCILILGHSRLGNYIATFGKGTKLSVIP TCR beta, part: DGGITQSPKYLFRKEGQNVTLSCEQNLNHDAMYWYRQDPGQGLRLIYYSQIVGDEQKGDIAEGYSVSREKKESFPLTVTSAQKNPTAFYLCASSWWTGGSAPIRFGPGTRLTVT — what was its Kd?
0.079

Sample ImmTAC molecule comprising a28 (SEQ ID NO: 6) and b74 (SEQ ID NO: 17) (TCR, part only; not given: anti-CD3 scFv, linker, TCR constants, part only) TCR alpha, part: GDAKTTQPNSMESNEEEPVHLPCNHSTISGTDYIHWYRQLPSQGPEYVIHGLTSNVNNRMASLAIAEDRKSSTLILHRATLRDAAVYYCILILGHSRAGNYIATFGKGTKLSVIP TCR beta, part: DGGITQSPKYLFRKEGQNVTLSCEQNLNHDAMYWYRQDPGQGLRLIYYSQIMGDEQKGDIAEGYSVSREKKESFPLTVTSAQKNPTAFYLCASSWWTGGASPIRFGPGTRLTVT — what was its Kd?
0.182
